// values below are reported self-cleavage
B1: Twister Ribozyme (parent)
chain: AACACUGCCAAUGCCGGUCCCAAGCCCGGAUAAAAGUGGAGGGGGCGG

Variants of: B1
METHOD SUMMARY: self-cleavage, relative activity (ratio to wild type); higher = more cleavage; co-transcriptional
READOUT NAME: self-cleavage

>>> numeric_result("A4G C19U")
0.887
>>> numeric_result("G28A U37C")
0.391
>>> numeric_result("G28C G45U")
0.349
>>> numeric_result("G13U U37C")
0.133
>>> numeric_result("C5A A32C")
0.413
>>> numeric_result("U18G G43A")
0.0708
>>> numeric_result("A1G A23U")
0.296
>>> numeric_result("C15U G38U")
0.76
>>> numeric_result("U12G A32C")
0.9
>>> numeric_result("A33G C46U")
0.851
>>> numeric_result("G28U A35U")
0.888
